- Test system: ABL1-nonphosphorylated
- Setup conditions: concentration: 1 μM, replicates: in singlicate; n = 1

Compound structure string: CCn1c(-c2ccoc2)nc2cnccc21
System name: ABL1-nonphosphorylated
Readout unit: %
%Inh: 1

Compound structure string: O=C(Nc1n[nH]c2cc(-c3ccccc3F)ccc12)C1CC1
System name: ABL1-nonphosphorylated
Readout unit: %
%Inh: 46

Compound structure string: Nc1n[nH]c2nnc(-c3ccccc3)c(-c3ccccc3)c12
System name: ABL1-nonphosphorylated
Readout unit: %
%Inh: 0

Compound structure string: COc1ccc(-n2cnc3c(N)ncnc32)cc1
System name: ABL1-nonphosphorylated
Readout unit: %
%Inh: 28

Compound structure string: Cc1ccc(-c2ccc3c(ccc4sc5c(c43)NC[C@@H](C)N=C5N(C)C)n2)cn1
System name: ABL1-nonphosphorylated
Readout unit: %
%Inh: 0

Compound structure string: Cl.NS(=O)(=O)c1cccc(Nc2cc(-c3ccc(F)cc3)n[nH]2)c1
System name: ABL1-nonphosphorylated
Readout unit: %
%Inh: 5

Compound structure string: COc1ccc(-c2cc3c(C)nc(N)nc3n([C@H]3CC[C@H](OCCO)CC3)c2=O)cn1
System name: ABL1-nonphosphorylated
Readout unit: %
%Inh: 0

Compound structure string: CCn1c(-c2nonc2N)nc2ccccc21
System name: ABL1-nonphosphorylated
Readout unit: %
%Inh: 53

Compound structure string: CCc1ccc(-c2ccc3c(c2)-c2nn(C)cc2S(=O)(=O)N3C)cc1
System name: ABL1-nonphosphorylated
Readout unit: %
%Inh: 31

Compound structure string: COc1cc2ncn(-c3cc(OCc4ccc(S(C)(=O)=O)cc4)c(C(N)=O)s3)c2cc1OC
System name: ABL1-nonphosphorylated
Readout unit: %
%Inh: 0

Compound structure string: C[C@@H]1CC[C@H](C(=O)NC2CCCCC2)CN1c1cc(-c2ccc3c(N)n[nH]c3c2)nc(N)n1
System name: ABL1-nonphosphorylated
Readout unit: %
%Inh: 5

Compound structure string: COc1cc2ncn(-c3cc(OCc4ccncc4Br)c(C(N)=O)s3)c2cc1OC
System name: ABL1-nonphosphorylated;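 further: KINOMEscan kinase panel screen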
Readout unit: %
%Inh: 15
